# measured_target: IP6K1^L210V (Homo sapiens, UniProt Q92551, L210V)
# Construct: made in house; host or cells: E. coli Arctic Express
# Sequence (Q92551 whole entry L210V): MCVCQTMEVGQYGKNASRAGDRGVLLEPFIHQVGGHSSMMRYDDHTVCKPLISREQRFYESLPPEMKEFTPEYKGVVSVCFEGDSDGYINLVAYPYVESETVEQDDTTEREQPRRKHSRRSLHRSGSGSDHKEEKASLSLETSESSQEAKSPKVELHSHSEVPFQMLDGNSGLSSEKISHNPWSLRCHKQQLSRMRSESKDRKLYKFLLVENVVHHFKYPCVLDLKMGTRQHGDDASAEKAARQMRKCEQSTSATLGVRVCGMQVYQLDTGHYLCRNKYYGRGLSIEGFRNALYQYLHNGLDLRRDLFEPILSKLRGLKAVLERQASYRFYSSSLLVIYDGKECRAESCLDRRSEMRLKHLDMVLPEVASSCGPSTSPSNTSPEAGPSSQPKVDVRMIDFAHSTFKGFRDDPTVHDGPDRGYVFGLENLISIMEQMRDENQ
# experiment_description: NMR activity assay, [13C6]-InsP6 to 5PP-InsP5, with ATP-regenerating system
# Format: biochemical
# test_parameters: NMR assay, 1 mM ATP, ATP-regenerating system
# Text: The gatekeeper mutants L210G and L210A of IP6K1 were generated by site-directed mutagenesis and the enzymes were recombinantly expressed, analogous to the WT kinase, as MBP-fusion proteins. To assess their catalytic activity, we used an NMR assay that harnesses fully ^13C-labeled InsP6 as a substrate and enables direct product readout of 5PP-InsP5 (Figure 2b and Figure 2—figure supplement 1; [Puschmann et al., 2019]; [Harmel et al., 2019]). […]
readout_name: pIC50
Lab note: report pIC50 as minus log10 of the concentration in molar units, number only.

Consider O=C(O)c1ccc2c(c1)C(=O)N(c1ccc(-c3nc4ccc(N5C(=O)c6ccc(C(=O)O)cc6C5=O)cc4[nH]3)cc1)C2=O [FMP-201300] . Its measured pIC50 is 6.94

* * *

# IC50 per record follows
# measured_target: IP6K1^L210V (Homo sapiens, UniProt Q92551, L210V)
# Construct: made in house; host or cells: E. coli Arctic Express
# experiment_description: High-throughput screen, reverse kinase reaction (5PP-InsP5 + ADP), Kinase-Glo luminescence
# Assay type: biochemical
# test_parameters: Kinase-Glo, reverse reaction, dose-dependent reconfirmation
# Excerpt: Although the NMR assay described above provides direct product detection and the ability to distinguish the PP-InsP isomers ([Harmel et al., 2019]), it is inherently slow and thus not compatible with a high-throughput screen. The use of luminescence-based readouts of ATP consumption to measure IP6K activity is error-prone due to the kinase’s unusually low affinity for ATP, the sensitivity to the ATP/ADP ratio, and its inherent ATPase activity ([Wundenberg et al., 2014]; [Voglmaier et al., 1996]). […]
Quick note: give the figure in nM, leave out the unit.

O=c1c(O)c(-c2ccc(O)c(O)c2)oc2cc(O)cc(O)c12 [compound 405356, quercetin, reference compound] :: 2860

Next compound, please.
Consider O=C(O)c1ccc2c(c1)C(=O)N(c1ccc(-c3nc4ccc(N5C(=O)c6ccc(C(=O)O)cc6C5=O)cc4[nH]3)cc1)C2=O [FMP-201300] . Its measured IC50 is 1600

* * *

# measured_target: IP6K2^wt (Homo sapiens, UniProt Q9UHH9)
# Construct: made in house; host or cells: E. coli Arctic Express
# experiment_description: NMR activity assay, [13C6]-InsP6 to 5PP-InsP5
# Format: biochemical
# test_parameters: Figure 4b
readout_name: pIC50
Lab note: report pIC50 as minus log10 of the concentration in molar units, number only.

Consider "O=C(O)c1ccc2c(c1)C(=O)N(c1ccc(-c3nc4ccc(N5C(=O)c6ccc(C(=O)O)cc6C5=O)cc4[nH]3)cc1)C2=O" . Its measured pIC50 is 5.67

* * *

# measured_target: IP6K2^wt (Homo sapiens)
# Construct: made in house; host or cells: E. coli Arctic Express
# Sequence (Q9UHH9 1-426): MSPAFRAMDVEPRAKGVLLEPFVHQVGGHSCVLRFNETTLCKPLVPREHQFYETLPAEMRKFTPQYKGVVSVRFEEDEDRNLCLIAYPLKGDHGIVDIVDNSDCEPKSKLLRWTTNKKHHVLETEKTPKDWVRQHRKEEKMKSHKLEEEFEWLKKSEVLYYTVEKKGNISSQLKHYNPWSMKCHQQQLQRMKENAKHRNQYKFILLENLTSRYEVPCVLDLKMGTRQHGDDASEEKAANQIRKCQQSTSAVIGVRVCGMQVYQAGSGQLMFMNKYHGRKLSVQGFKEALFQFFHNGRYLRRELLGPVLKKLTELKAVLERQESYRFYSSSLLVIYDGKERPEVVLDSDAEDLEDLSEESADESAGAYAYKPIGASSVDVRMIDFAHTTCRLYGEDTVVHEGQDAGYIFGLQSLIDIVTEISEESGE
# experiment_description: NMR activity assay, [13C6]-InsP6 to 5PP-InsP5
# Assay type: biochemical
readout_name: IC50 (nM)
Quick note: give the figure in nM, leave out the unit.

Consider "O=C(O)c1ccc2c(c1)C(=O)N(c1ccc(-c3nc4ccc(N5C(=O)c6ccc(C(=O)O)cc6C5=O)cc4[nH]3)cc1)C2=O" . Its measured IC50 is 2140
